# test: qHTS RealTime-Glo MT Cell Viability Assay in HEK293 cells - 24 hour (AID 1224886); note: nearly all actives have a fitted effect of over 50% in size
# measurement_parameters: RealTime-Glo luminescence; series mostly up to 76.8 µM
Records with an inconclusive call do not appear. The source made the active and inactive calls. Calls come from the whole dose curve; as a rule, active = well fitted cell-killing curve with a large enough effect in the repeat runs; inconclusive = weak or mixed curves, or effect the other way; inactive = flat fitted curve, though single readings scatter.
Outcomes: active, inactive

compound: CCC(C)Cl (stereo not drawn)
class_name: inactive

compound: CCCCCCCCP(=O)(O)O
class_name: inactive

compound: O=C=NC1CCCCC1
class_name: inactive

compound: CN1C[C@H](C(=O)N[C@]2(C)O[C@@]3(O)[C@@H]4CCCN4C(=O)[C@H](Cc4ccccc4)N3C2=O)C=C2c3cccc4[nH]cc(c34)C[C@H]21
class_name: inactive

compound: CCC1(C2=NCCN2)Cc2ccccc2O1 (stereo not drawn)
class_name: inactive

compound: C[C@]12CC[C@H]3[C@@H](CCC4=CC(=O)CC[C@@H]43)[C@@H]1CC[C@@H]2OC(=O)CCc1ccccc1
class_name: inactive

compound: CCc1ccccc1N
class_name: inactive

compound: O=S(=O)(c1ccccc1)c1ccccc1
class_name: inactive

compound: O=C(O)C(F)(F)C(F)(F)C(F)(F)C(F)(F)C(F)(F)F
class_name: inactive

compound: CCOc1cccc(C2(N3CCN(c4ccccc4)CC3)CCC(C)CC2)c1 (stereo not drawn)
class_name: inactive

compound: CCOP(=O)(O)C(N)=O
class_name: inactive

compound: O=C(O)C(O)C(O)C(=O)O (stereo not drawn)
class_name: inactive

compound: CCC(C)(C)c1ccc(O)c(C(C)(C)CC)c1
class_name: active

Origin of values: PubChem BioAssay (Tox21)
